Here the recorded pKd is given for each entry.
- Subject Of Test: T1, PUF4 RNA-binding domain (Saccharomyces cerevisiae, UniProt P25339 537-888)
- T1 sequence: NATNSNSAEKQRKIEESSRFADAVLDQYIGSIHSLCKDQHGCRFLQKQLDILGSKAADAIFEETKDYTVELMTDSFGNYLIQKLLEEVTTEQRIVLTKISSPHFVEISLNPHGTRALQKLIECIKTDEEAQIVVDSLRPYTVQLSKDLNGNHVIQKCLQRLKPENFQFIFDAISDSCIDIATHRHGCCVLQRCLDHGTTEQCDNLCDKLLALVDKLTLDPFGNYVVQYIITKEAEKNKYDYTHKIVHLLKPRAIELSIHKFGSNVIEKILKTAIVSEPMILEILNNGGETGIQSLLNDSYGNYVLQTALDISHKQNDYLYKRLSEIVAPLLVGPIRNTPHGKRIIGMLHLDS
- Assay Protocol: Mg; RNA-MaP; 20 mM Na-HEPES pH 7.4, 30 mM KOAc, 0.75 mM MgCl2, 0.1% Tween-20, 5% glycerol, 0.1 mg/mL BSA, 2 mM DTT; 25 C; 0.0125-409.6 nM protein
- Test Parameters: tags: N-His6-TEV cleaved; C-SNAP kept, Cy3B-labelled; label: tethered on chip by stalled RNA polymerase
pKd: −log10 of the molar value.
Measurement Type: pKd

Binder	Bound Type	Test Value
Id_ii_S2_P4E.4_K4.3_C4.2_[T-1A]_H4.3_A4.1_F4.1_T4.2_[T11C] (ssRNA) RNA: UUUGAUUAAUAUGAUAUCGUUCUUUCUCAACACUAUUAGCUUCUUUCUCGAUAUCAUAUUAAUCUUU	<	5.64
Ic_S2_P4E.1_K4.1_C4.1_H4.1_A4.1_[T5G]_[A6T]_[T7A]_F4.1_[T8G]_[A9T]_T4.1 (ssRNA) RNA: UUUGAUUAAUAUGAUAUCGUUCUUUCUUGUAGUAGUUUCUUUCUCGAUAUCAUAUUAAUCUUU	=	6.01
UCUCUUCUUGUAUAUUCCAUAUCUCUU (ssRNA) [Ie_S1_P3E.2_K3.1_C3.2_H3.1_A3.1_F3.1_[+7TCC]_T3.2]	=	8.01
